These measurements were taken from ChEMBL document CHEMBL1151124.

run-description: Inhibition of cAMP-specific 3',5'-cyclic phosphodiesterase
The source made the active and inactive calls. The calls are words filed in the database; no cut-off is given here.
Tick one outcome: active, inactive

Solved cases below.
> print(dat)
                                   compound  classification
1  Nc1ncnc2c1ncn2[C@@H]1OC2=C[C@@](C(=O)O)(C(O)C(=O)O)O[C@H]2[C@H]1O (some centres undefined)          active
2  Nc1ncnc2c1ncn2[C@@H]1OC2=C[C@](CC(=O)O)(C(=O)O)O[C@H]2[C@H]1O          active
3  Nc1ncnc2c1ncn2[C@@H]1O[C@@H]2C[C@](CC(=O)O)(C(=O)O)O[C@H]2[C@H]1O          active

-- ask For this compound, state the assay outcome: Nc1ncnc2c1ncn2[C@@H]1O[C@H](C[C@@H](CC(=O)O)C(=O)O)[C@@H](O)[C@H]1O
-- reply inactive
